Tested on: Glutathione reductase, mitochondrial (GSHR_HUMAN)
experiment-summary: LC–MS proteome analysis, GSHR
Format: cell-based, Homo sapiens
study-conditions: SW480, 24 h, IC50 concentration, % of control
endpoint: Protein Intensity, % (GSHR)

structure=O=[N+]([O-])c1cc([N+]2=C(Nc3ccc(I)cc3)[S][Cu-2]23[S]C(Nc2ccc(I)cc2)=[N+]3c2ccc(Cl)c([N+](=O)[O-])c2)ccc1Cl reported=74.3%
structure=O=[N+]([O-])c1cc([N+]2=C(Nc3ccc(Br)cc3)[S][Cu-2]23[S]C(Nc2ccc(Br)cc2)=[N+]3c2ccc(Cl)c([N+](=O)[O-])c2)ccc1Cl reported=63.1%
structure=O=[N+]([O-])c1cc([N+]2=C(Nc3ccccc3Br)[S][Cu-2]23[S]C(Nc2ccccc2Br)=[N+]3c2ccc(Cl)c([N+](=O)[O-])c2)ccc1Cl reported=58.1%
structure=O=[N+]([O-])c1cc([N+]2=C(Nc3ccccc3F)[S][Cu-2]23[S]C(Nc2ccccc2F)=[N+]3c2ccc(Cl)c([N+](=O)[O-])c2)ccc1Cl reported=91.7%
